# Test system: hedgehog signaling pathway
# assay explanation: Gli-Luc Reporter Assay for Hh Pathway Inhibition (TMHh-12 cells, pTA-8×Gli-Luc reporter)
# Assay type: cell-based, Mouse
# stated conditions: Mus musculus, TMHh12, enzymatic and cellular assays for the inhibition of hedgehog signaling pathways; read-out: IC50 Ranges
Measured IC50 accompanies every entry in the list below.

> print(dat)
                                    molecule                study.target  observed.result
 1  Cc1ccc(Nc2cccc3c2CCN(S(C)(=O)=O)C3)cc1-c1cc2ccccc2[nH]1 [Compound 151]  hedgehog signaling pathway     10 to 100 nM
 2  CS(=O)(=O)N1CCc2c(cccc2Nc2cnc(Cl)c(-c3ccc(C#N)cc3)c2)C1 [Compound 175]  hedgehog signaling pathway     10 to 100 nM
 3  CC(C(=O)O)N1CCc2c(cccc2Nc2ccc(Cl)c(-c3ncc(-c4ccccc4)[nH]3)c2)C1 (centres unmarked) [Compound 58]  hedgehog signaling pathway       1 to 10 nM
 4  CS(=O)(=O)N1CCc2c(cccc2Nc2ccc(Cl)c(-c3ncc(-c4ccccc4)[nH]3)c2)C1 [Compound 4]  hedgehog signaling pathway    0.001 to 1 nM
 5  Cc1ccc(-c2nc(Nc3cccc4c3CCN(S(C)(=O)=O)C4)ccc2C)nc1 [Compound 274]  hedgehog signaling pathway    0.001 to 1 nM
 6  CCOc1cnc(-c2nc(Nc3cccc4c3CCN(S(=O)(=O)C(C)C)C4)ccc2C)cn1 [Compound 336]  hedgehog signaling pathway     10 to 100 nM
 7  OC1CCC(N2CCc3c(cccc3Nc3ccc(Cl)c(-c4ncc(-c5ccccc5)[nH]4)c3)C2)CC1 (centres unmarked) [Compound 37]  hedgehog signaling pathway    0.001 to 1 nM
 8  Cc1ccc(Nc2cccc3c2CCN(CC(F)(F)CO)C3)cc1-c1ccc(C#N)cc1 [Compound 112]  hedgehog signaling pathway     10 to 100 nM
 9  Cc1ccc(Nc2cccc3c2CCN(S(C)(=O)=O)C3)cc1OCc1ccccc1 [Compound 130]  hedgehog signaling pathway       1 to 10 nM
10  Cc1ccc(Nc2cccc3c2CCN(S(C)(=O)=O)C3)cc1-c1ccc(C#N)cn1 [Compound 154]  hedgehog signaling pathway       1 to 10 nM

Proceed to the following item.
Value sought: IC50, system hedgehog signaling pathway, item Cc1ccc(Nc2cccc3c2CCN(CCS(C)(=O)=O)C3)nc1-c1ccccn1 [Compound 311] . Result: 10 to 100 nM
